# System: THP-1
# PROCEDURE SUMMARY: Cytotoxicity in human THP-1 cells assessed as reduction in cell viability incubated for 72 hrs by MTT assay
# Type: cell-based
# CONDITION NOTES: THP-1, 72 h
# maps each entry to its IC50
Please respond with the number in µM and leave the unit unwritten.

Below, each entry is followed by its recorded IC50 result.
CS(=O)(=O)N1CCCc2ccc(N(S(=O)(=O)c3ccc([N+](=O)[O-])cc3)S(=O)(=O)c3ccc([N+](=O)[O-])cc3)cc21 = 65.3
CCCS(=O)(=O)N(c1ccc2c(c1)N(S(C)(=O)=O)CCC2)S(=O)(=O)CCC = 98.8
CS(=O)(=O)N1CCCc2ccc(N(S(=O)(=O)c3cc(C(F)(F)F)cc(C(F)(F)F)c3)S(=O)(=O)c3cc(C(F)(F)F)cc(C(F)(F)F)c3)cc21 = 34.7

Next molecule, IC50 to be filled in.
What value of measured IC50 is listed for `CS(=O)(=O)N1CCCc2ccc(N(S(=O)(=O)c3cccnc3)S(=O)(=O)c3cccnc3)cc21` ? 71.1

Recorded values, source ChEMBL document CHEMBL4765468.
